Entry source: patent US20160050919A1

- ASSAY_REMARKS: Stability of active ingredients in the formulation, two weeks at 54° C.
- MEASUREMENT_CONDITIONS: formulation of Table 5 (emulsion); initial
Overview of reported Initial % wt across a group of compounds:
Please make sure the unit comes right after the number.

smiles_str=COc1c(Cl)ccc(Cl)c1C(=O)O value_measured="0.64 % wt"
smiles_str=Cc1cc(Cl)ccc1O[C@@H](C)C(=O)O value_measured="1.53 % wt"
smiles_str=O=C(O)COc1nc(Cl)c(Cl)cc1Cl value_measured="1.78 % wt"

# context switch: different compound, same Initial % wt
For the compound `CCOC(=O)[C@@H](C)Oc1ccc(Oc2nc3ccc(Cl)cc3o2)cc1` , give its reported Initial % wt.
0.60 % wt

====

- ASSAY_REMARKS: Stability of active ingredients in the formulation, two weeks at 54° C.
- MEASUREMENT_CONDITIONS: formulation of Table 5 (emulsion); 2 week at 54° C.
MEASURED_METRIC: % wt after 2 week at 54° C. (% wt)
Value expressed in % wt; do not type the unit.

Recorded results for 3 molecules are shown here.
smiles_str=COc1c(Cl)ccc(Cl)c1C(=O)O value_measured=0.45
smiles_str=CCOC(=O)[C@@H](C)Oc1ccc(Oc2nc3ccc(Cl)cc3o2)cc1 value_measured=0.60
smiles_str=Cc1cc(Cl)ccc1O[C@@H](C)C(=O)O value_measured=1.39

For the molecule `O=C(O)COc1nc(Cl)c(Cl)cc1Cl` , give its reported % wt after 2 week at 54° C..
1.75
